Reported IC50 values, Xanthine dehydrogenase/oxidase (Bos taurus, UniProt P80457).
Expressed in µM, but write only the number.

INPUT: Fill in: IC50 of CC(=O)OCC1=CC[C@@H]2C(C(=O)Sc3ccncc3)=CO[C@@H](O[C@@H]3O[C@H](COC(C)=O)[C@@H](OC(C)=O)[C@H](OC(C)=O)[C@H]3OC(C)=O)[C@H]12 is ___
OUTPUT: 20.5

INPUT: What value of IC50 has been recorded for this entry: CCC(=O)OCC1=CC[C@@H]2C(C(=O)O)=CO[C@@H](O[C@@H]3O[C@H](COC(=O)CC)[C@@H](OC(=O)CC)[C@H](OC(=O)CC)[C@H]3OC(=O)CC)[C@H]12
OUTPUT: 48.8

INPUT: Which IC50 value belongs to CC(=O)OCC1=CC[C@@H]2C(C(=O)Oc3cccc(C#N)c3)=CO[C@@H](O[C@@H]3O[C@H](COC(C)=O)[C@@H](OC(C)=O)[C@H](OC(C)=O)[C@H]3OC(C)=O)[C@H]12 ?
OUTPUT: 5.15

INPUT: Dear colleague, I am looking for the recorded IC50 of the following molecule: COC(=O)C1=COC(OC(=O)NC(C)C)[C@@H]2C(COC(=O)NC(C)C)=CC[C@H]12 (stereo partly specified)
OUTPUT: 80.2

INPUT: May I ask what IC50 has been recorded for COC(=O)C1=COC(OC(=O)Nc2cccc(C)c2)[C@@H]2C(COC(=O)Nc3cccc(C)c3)=CC[C@H]12 (stereo partly specified) ?
OUTPUT: 140

INPUT: Would you mind telling me what IC50 value was observed for CC(=O)OCC1=CC[C@@H]2C(C(=O)Sc3ncc[nH]3)=CO[C@@H](O[C@@H]3O[C@H](COC(C)=O)[C@@H](OC(C)=O)[C@H](OC(C)=O)[C@H]3OC(C)=O)[C@H]12 ?
OUTPUT: 87.5

INPUT: IC50 lookup needed for CC(=O)OCC1=CC[C@@H]2C(C(=O)On3cccn3)=CO[C@@H](O[C@@H]3O[C@H](COC(C)=O)[C@@H](OC(C)=O)[C@H](OC(C)=O)[C@H]3OC(C)=O)[C@H]12 , thanks.
OUTPUT: 8.74
